Target: UniProt P17342
Sequence (P17342 whole entry, the tested form may be a part): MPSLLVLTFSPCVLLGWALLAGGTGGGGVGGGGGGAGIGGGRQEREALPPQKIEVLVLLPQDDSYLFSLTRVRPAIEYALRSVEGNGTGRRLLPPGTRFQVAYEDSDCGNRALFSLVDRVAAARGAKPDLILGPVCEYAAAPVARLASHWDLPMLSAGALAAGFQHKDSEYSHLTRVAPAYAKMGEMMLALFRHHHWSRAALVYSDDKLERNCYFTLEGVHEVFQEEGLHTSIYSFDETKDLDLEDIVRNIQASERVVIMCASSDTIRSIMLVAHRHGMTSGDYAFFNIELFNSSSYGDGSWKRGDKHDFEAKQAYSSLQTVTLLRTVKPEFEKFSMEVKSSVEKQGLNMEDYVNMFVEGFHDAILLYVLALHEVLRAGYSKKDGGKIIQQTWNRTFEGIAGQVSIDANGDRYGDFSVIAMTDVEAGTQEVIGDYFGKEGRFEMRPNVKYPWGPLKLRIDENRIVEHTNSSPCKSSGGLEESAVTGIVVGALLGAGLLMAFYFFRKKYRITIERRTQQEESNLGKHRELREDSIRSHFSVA
Test: Displacement of [125I]-human ANP from His-tagged and Fc fragment containing human NPR-3 extracellular domain expressed in FreeStyle 293 cells incubated for 2 hrs by top count method
pIC50: −log10 of the molar value. Square brackets hold non-standard residues; d marks the D form. Peptide text beside a SMILES is read from it. Cha = N[C@@H](CC1CCCCC1)C(=O)O

Compound: CC[C@H](C)[C@H](NC(=O)[C@H](CCCNC(=N)N)NC(=O)[C@H](CC(=O)O)NC(=O)[C@@H](NC(=O)[C@H](CCCNC(=N)N)NC(=O)CNC(=O)CNC(=O)[C@H](CC1CCCCC1)NC(=O)[C@@H](N)CO)[C@@H](C)CC)C(=O)NCC(N)=O (H-S[Cha]GGRIDRIG-NH2)
pIC50: 7.82
//
Compound: CC[C@H](C)[C@H](NC(=O)[C@H](CCCNC(=N)N)NC(=O)[C@H](CC(=O)O)NC(=O)[C@@H](NC(=O)[C@H](CCCNC(=N)N)NC(=O)CNC(=O)CNC(=O)[C@H](CC1CCCCC1)NC(=O)[C@H](C)N)[C@@H](C)CC)C(=O)NCC(N)=O (H-A[Cha]GGRIDRIG-NH2)
pIC50: 7.89
//
Compound: CC[C@H](C)[C@H](NC(=O)[C@H](CCCNC(=N)N)NC(=O)[C@H](CC(=O)O)NC(=O)[C@@H](NC(=O)[C@H](CCCNC(=N)N)NC(=O)CNC(=O)CNC(=O)[C@@H](N)CC1CCCCC1)[C@@H](C)CC)C(=O)NCC(N)=O (H-[Cha]GGRIDRIG-NH2)
pIC50: 7.96
